Where these numbers come from: patent US20200361895A1

Assay: PK protocol, intravenous administration
Format: in vivo, male Sprague Dawley rats
Details: male, Sprague Dawley, plasma, dose 1.69 mg/kg, rat
readout: AUC (ng·h/mL)
Answer in ng·h/mL, number only, no unit symbol.

Look up AUC for this compound: "COc1cc(-c2ccc3c(c2NC(=O)NS(=O)(=O)c2ccn(CCN(C)C)n2)CCC3)ccn1" 1140

---

Assay: PK protocol, intravenous administration
Assay type: in vivo, male Sprague Dawley rats
Conditions: male, Sprague Dawley, plasma, dose 1 mg/kg, rat, read-out: Vdss
Structures can show the parent of a compound that is named as a salt.
# note: boundary value 1 L/kg maps to Not met; Vd below it maps to Met

State whether 1 L/kg exceeds Vd recorded for "CC(C)c1cc(F)cc(-c2ccnc(O)c2)c1NC(=O)NS(=O)(=O)c1ccn(C(C)C)n1" . Met

"COc1cc(-c2cc(F)cc(C(C)C)c2NC(=O)NS(=O)(=O)c2cc(CN(C)C)n(C)n2)ccn1" , same question. Met

What would you report for CC(C)c1cc(F)cc(C2CCOCC2)c1NC(=O)NS(=O)(=O)c1cc(C(=O)N(C)C)n(C)n1 [Example 30, sodium salt] ? Not met

And COc1cc(-c2ccc3c(c2NC(=O)NS(=O)(=O)c2ccn(C(C)C)n2)CCO3)ccn1 [Example 224, sodium salt] ? Met

Would you kindly repeat that for "COc1cc(-c2cc(F)c3c(c2NC(=O)NS(=O)(=O)c2ccn(C(C)C)n2)CCC3)ccn1" ? Not met

Input CC(C)n1ccc(S(=O)(=O)NC(=O)Nc2c(-c3ccnnc3)ccc3c2CCC3)n1 [Example 223, sodium salt] Met

Request: CC(C)n1cc(S(=O)(=O)NC(=O)Nc2c(-c3ccnc(C#N)c3)ccc3c2CCC3)nn1 [Example 230, sodium salt] Met

Continue with CC(C)c1cc(F)cc(-c2cccnc2)c1NC(=O)NS(=O)(=O)c1cc(C(=O)N(C)C)n(C)n1 [Example 33, sodium salt] Not met

How about "COc1cc(-c2ccc3c(c2NC(=O)NS(=O)(=O)c2cncc(N(C)C)n2)CCC3)ccn1" ? Not met

// same read-out, input: "CC(C)c1cc(F)cc(-c2cccnc2)c1NC(=O)NS(=O)(=O)c1ccn(C(C)C)n1" Not met

And what about the molecule "CC(C)c1cc(F)cc(-c2cccnc2)c1NC(=O)NS(=O)(=O)c1cc(CN(C)C)n(C)n1" ? Met

Another: CC(C)c1cc(F)cc(-c2cnn(C)c2)c1NC(=O)NS(=O)(=O)c1cc(C(=O)N(C)C)n(C)n1 [Example 34, sodium salt] Not met

Repeat with "COc1cc(-c2cc(F)cc(C(C)C)c2NC(=O)NS(=O)(=O)c2cncc(N(C)C)n2)ccn1" Not met

Subsequent entry: "CC(C)n1ccc(S(=O)(=O)NC(=O)Nc2c(-c3ccncc3)cc(F)c3c2CCC3)n1" Met

Now consider COc1cc(-c2ccc3c(c2NC(=O)NS(=O)(=O)c2ccn(C4CC4)n2)CCC3)ccn1 [Example 221, sodium salt] . Met

Same question, "CC(C)c1cc(F)cc(-c2ccnc(C#N)c2)c1NC(=O)NS(=O)(=O)c1ccn(C(C)C)n1" this time Not met

Subsequent entry: COc1cc(-c2ccc3c(c2NC(=O)NS(=O)(=O)N(C)C2CCN(C)C2)CCC3)ccn1 (stereo not shown) Not met

Let us now turn to "COc1cc(-c2cc(F)cc(C(C)C)c2NC(=O)NS(=O)(=O)c2cc(CN(C)C)n(C(C)C)n2)ccn1" Not met

Now the molecule "CC(C)c1cc(F)cc(-c2cccc(C#N)c2)c1NC(=O)NS(=O)(=O)c1cc(CN(C)C)n(C)n1" Not met

Can you check "CC(C)c1cc(F)cc(-c2ccnc(C#N)c2)c1NC(=O)NS(=O)(=O)c1cn(C(C)C)cn1" next? Not met

Next record, please: "CC(C)c1cc(F)cc(-c2cccnc2)c1NC(=O)NS(=O)(=O)c1ccn(C[C@@H](C)O)n1" Not met

And the next one, COc1cc(-c2ccc3c(c2NC(=O)NS(=O)(=O)c2ccc(CN(C)C)cc2)CCC3)ccn1 [Example 251, sodium salt] ? Not met

How about "CC#Cc1cc(-c2cc(F)cc(C(C)C)c2NC(=O)NS(=O)(=O)c2ccn(C(C)C)n2)ccn1" ? Not met

Similarly, "COc1cc(-c2ccc3c(c2NC(=O)NS(=O)(=O)c2ccn(C(C)(C)CN(C)C)n2)CCC3)ccn1" ? Met
